In this section, each of the binders is paired with its reported ELISA_avg.
# targetOrTestSystem: T1, CD123 (Homo sapiens (Human), UniProt P26951 19-305, limits assumed)
# T1 construct: The CD123 construct used in the ELISA is not described; also called CD123-Signal
# T1 sequence: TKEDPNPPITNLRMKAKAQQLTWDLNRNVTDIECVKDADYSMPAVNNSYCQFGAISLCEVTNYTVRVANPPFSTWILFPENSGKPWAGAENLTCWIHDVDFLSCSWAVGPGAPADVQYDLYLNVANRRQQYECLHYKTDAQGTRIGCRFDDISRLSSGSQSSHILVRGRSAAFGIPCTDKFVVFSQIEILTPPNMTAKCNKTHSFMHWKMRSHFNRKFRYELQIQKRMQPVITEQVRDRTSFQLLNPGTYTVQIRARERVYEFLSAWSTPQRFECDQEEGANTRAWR
# methodNotes: ELISA
# Parameters: unit not given here
Output: the number by itself.

Examples with answers:
binder: D domain of SEQ ID NO: 631 (designed binder) MGSWYEFDERLDAIFDRLWALGGSEAELAYFEQVIATFEKTLQRYKGKGNPEVEALDTEAKAISWELDAYRHN
ELISA_avg: 3

binder: D domain of SEQ ID NO: 434 (designed binder) MGSWQEFTMRLDAIYNRLETLGGSEAELAAFEKEIAAFESELQAYKGKGNPEVEWLRQSAANIRSELQAYRHN
ELISA_avg: 13.7

binder: D domain of SEQ ID NO: 607 (designed binder) MGSWYEFEDRLAAIWDRLNALGGSEAELAIFEWDIAWFEEGLQEYKGKGNPEVEALKHEASAIQTELFAYRHN
ELISA_avg: 6.4

Prompt: Note down ELISA_avg recorded for D domain of SEQ ID NO: 541 (designed binder) MGSWFNFKEELAVIKFQLEALGGSEAELAFFEWVIADFEDDLQEYKGKGNPEVEALRKEAAAIRDELQAYRHN
Completion: 6.1

Prompt: Please indicate ELISA_avg recorded for D domain of SEQ ID NO: 538 (designed binder) MGSWFMFKQELAWIKEDLEALGGSEAELADFEWDIAEFEWDLQYYKGKGNPEVEALRKEAAAIRDELQAYRHN
Completion: 7.2

Prompt: Specify measured ELISA_avg for D domain of SEQ ID NO: 361 (designed binder) MGSWVEFHERLEAIEDRLMALGGSEAELAAFEKEIAAFESELQAYKGKGNPEVEYLREDAAFIRQLLQAYRHN .
Completion: 3.7

Prompt: Entry D domain of SEQ ID NO: 446 (designed binder) MGSWSEFHVRLDAIYARLDALGGSEAELAAFEKEIAAFESELQAYKGKGNPEVERLREWAANIRRELQAYRHN needs its ELISA_avg filled in; supply it.
Completion: 14.4

Prompt: Read the entry D domain of SEQ ID NO: 566 (designed binder) MGSWAEFKQRLAAIKTRLEALGGSEAELAAFMDEIMAFEWELWAYKGKGNPEVEALMNEAFAIDVELYAYRHN and write its reported ELISA_avg.
Completion: 3.4
